molecular target: T1, human PD-L1-Fc (human, UniProt Q9NZQ7 19-239); experiment: BLI; PD-L1-Fc loaded on the sensor, scFv in solution
T1 construct: also called hPD-L1-Fc; human PD-L1-Fc (Sino Biological, 70110-D02H); not shown: Fc part
T1 sequence (Q9NZQ7 19-239 limits assumed): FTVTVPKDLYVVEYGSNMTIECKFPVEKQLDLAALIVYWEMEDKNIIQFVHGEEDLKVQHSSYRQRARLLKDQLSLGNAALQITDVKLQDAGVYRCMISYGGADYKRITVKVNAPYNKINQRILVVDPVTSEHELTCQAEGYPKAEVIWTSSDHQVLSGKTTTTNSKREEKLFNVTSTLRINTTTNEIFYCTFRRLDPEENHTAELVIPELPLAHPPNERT
This section presents binders with their documented kon values.
Please give a number only; it is taken to be in M⁻¹ s⁻¹.

Record excerpt, results attached:
BINDER: 4B6 scFv variant H-CDR2-5 (scFv, also called 4B6-H-CDR2-5) scFv: DIQMTQSPSSLSASVGDRVTITCKASQNVGAAVAWYQQKPGKAPKLLIYSASNRYTGVPSRFSGSGSGTDFTLTISSLQPEDIATYYCQQYSNYPTFGQGTKLEIKGGGGSGGGGSGGGGSQVQLVQSGAEVKKPGASVKVSCKASGYVFTDYYMNWVRQAPGQSLEWMGDINPNNAQTVYNHKFKGRVTVTVDKSISTAYMELSRLRSDDTAVYYCVKWGDGPFAYWGQGTLVTVSS
kon, M⁻¹ s⁻¹: 102000
//
BINDER: 4B6 scFv variant H-CDR2-4 (scFv, also called 4B6-H-CDR2-4) scFv: DIQMTQSPSSLSASVGDRVTITCKASQNVGAAVAWYQQKPGKAPKLLIYSASNRYTGVPSRFSGSGSGTDFTLTISSLQPEDIATYYCQQYSNYPTFGQGTKLEIKGGGGSGGGGSGGGGSQVQLVQSGAEVKKPGASVKVSCKASGYVFTDYYMNWVRQAPGQSLEWMGDINPNNGLTSYNHKFKGRVTVTVDKSISTAYMELSRLRSDDTAVYYCVKWGDGPFAYWGQGTLVTVSS
kon, M⁻¹ s⁻¹: 117000
//
BINDER: 4B6 scFv variant H-CDR2-3 (scFv, also called 4B6-H-CDR2-3) scFv: DIQMTQSPSSLSASVGDRVTITCKASQNVGAAVAWYQQKPGKAPKLLIYSASNRYTGVPSRFSGSGSGTDFTLTISSLQPEDIATYYCQQYSNYPTFGQGTKLEIKGGGGSGGGGSGGGGSQVQLVQSGAEVKKPGASVKVSCKASGYVFTDYYMNWVRQAPGQSLEWMGDINPNNAETLYNHKFKGRVTVTVDKSISTAYMELSRLRSDDTAVYYCVKWGDGPFAYWGQGTLVTVSS
kon, M⁻¹ s⁻¹: 116000

q: Look up kon: 4B6 scFv variant H-CDR2-1 (scFv, also called 4B6-H-CDR2-1) scFv: DIQMTQSPSSLSASVGDRVTITCKASQNVGAAVAWYQQKPGKAPKLLIYSASNRYTGVPSRFSGSGSGTDFTLTISSLQPEDIATYYCQQYSNYPTFGQGTKLEIKGGGGSGGGGSGGGGSQVQLVQSGAEVKKPGASVKVSCKASGYVFTDYYMNWVRQAPGQSLEWMGDINPNNADTMYNHKFKGRVTVTVDKSISTAYMELSRLRSDDTAVYYCVKWGDGPFAYWGQGTLVTVSS
a: 141000

Data credit: patent US20250282874A1
